measurementTarget: Histamine H3 receptor (Homo sapiens, UniProt Q9Y5N1)
Sequence (Q9Y5N1 whole entry): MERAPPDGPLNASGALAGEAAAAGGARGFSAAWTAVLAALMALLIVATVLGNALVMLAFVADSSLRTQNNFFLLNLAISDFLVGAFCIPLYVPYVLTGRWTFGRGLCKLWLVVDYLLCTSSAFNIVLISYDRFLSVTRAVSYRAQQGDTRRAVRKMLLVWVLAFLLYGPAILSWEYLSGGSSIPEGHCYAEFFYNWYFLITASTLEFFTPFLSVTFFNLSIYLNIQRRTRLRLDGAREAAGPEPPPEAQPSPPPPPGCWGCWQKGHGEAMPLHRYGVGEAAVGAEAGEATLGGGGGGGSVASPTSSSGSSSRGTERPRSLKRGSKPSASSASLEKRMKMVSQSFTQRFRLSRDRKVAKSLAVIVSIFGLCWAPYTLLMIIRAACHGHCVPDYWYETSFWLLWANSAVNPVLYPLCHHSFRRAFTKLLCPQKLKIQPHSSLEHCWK
assayOverview: Antagonist activity at human histamine H3 receptor expressed in CHO cells assessed as inhibition of forskolin/R-alpha-methylhistamine-induced cAMP accumulation after 1.5 hrs by TR-FRET immunoassay
Type: functional, cell-based
conditionSummary: read-out: pA2 (converted)
property: Kb

lineNotation | property | observedMeasurement
N=C(NCCCCN1CCCCC1)SCCCN1CCCCC1 | Kb | 2 nM
N#Cc1ccc(CCCCNC(=N)SCCCN2CCCCC2)cc1 | Kb | 2 nM
Cl.N=C(NCCc1ccc(Cl)cc1)SCCCN1CCCCC1 | Kb | 39.8 nM
Cl.N=C(NCCCc1ccc(Cl)cc1)SCCCN1CCCCC1 | Kb | 2 nM
Cl.N=C(NCCCCc1ccc(Cl)cc1)SCCCN1CCCCC1 | Kb | 0.251 nM
Cl.N=C(NCc1ccc(Cl)cc1)SCCCN1CCCCC1 | Kb | 39.8 nM

Ref: ChEMBL document CHEMBL2440068
